Values were extracted from patent US7678918B2.

# System: TNF
# protocol-text: Cytokine Induction in Human Cells: tumor necrosis factor (TNF) secreted by PBMCs, ELISA; further: call rule not given here
# Format: cell-based
# recorded-conditions: Dose Concentration 0.1 μM, 18 to 24 hours

{"compound": "CCCCc1nc2c(N)nc3cccnc3c2n1CCCCNC(=O)Cc1ccc(OC)cc1 [Example 187]", "TNF induction": "−"}
{"compound": "CCCCc1nc2c(N)nc3cccnc3c2n1CCCCNC(=O)CC(C)(C)C [Example 172]", "TNF induction": "−"}
{"compound": "CCCCc1nc2c(N)nc3cccnc3c2n1CCNC(=O)c1ccccc1OC [Example 144]", "TNF induction": "−"}
{"compound": "CC(C)(O)Cn1c(Cc2ccccc2)nc2c(N)nc3cccnc3c21 [Example 65]", "TNF induction": "−"}
{"compound": "CCCCc1nc2c(N)nc3cccnc3c2n1CCCCNC(=O)c1ccc(C(OCCN(C)C)c2ccccc2)cc1 (stereo not drawn) [Example 112]", "TNF induction": "+"}
{"compound": "CCCCc1nc2c(N)nc3cccnc3c2n1CCCCNC(=O)NC1CCCCC1 [Example 48]", "TNF induction": "−"}
{"compound": "CCCCc1nc2c(N)nc3cccnc3c2n1CCCCNC(=O)C1CC1 [Example 173]", "TNF induction": "−"}
{"compound": "CCCCc1nc2c(N)nc3cccnc3c2n1CCCCNC(=O)c1cc(C(F)(F)F)cc(C(F)(F)F)c1 [Example 161]", "TNF induction": "−"}
{"compound": "CCOCc1nc2c(N)nc3cccnc3c2n1Cc1ccccc1 [Example 70]", "TNF induction": "−"}
{"compound": "CCCCc1nc2c(N)nc3cccnc3c2n1CCN [Example 91]", "TNF induction": "+"}
{"compound": "CCCCc1nc2c(N)nc3cccnc3c2n1CCCCNC(=O)CCC1CCCC1 [Example 175]", "TNF induction": "−"}
{"compound": "CCCCc1nc2c(N)nc3cccnc3c2n1CCCCNC(=O)Cn1cc(C)c(O)nc1=O [Example 108]", "TNF induction": "±"}
{"compound": "CCCCc1nc2c(N)nc3cccnc3c2n1CCCCNC(=O)c1c(F)c(F)c(F)c(F)c1F [Example 163]", "TNF induction": "−"}
{"compound": "CCCCCCCCCCCC(=O)NCCn1c(CCCC)nc2c(N)nc3cccnc3c21 [Example 201]", "TNF induction": "−"}
{"compound": "CCCCc1nc2c(N)nc3cccnc3c2n1CCNC(=O)c1ccc(Br)o1 [Example 206]", "TNF induction": "−"}
{"compound": "CC(C)Cn1cnc2c(N)nc3ncccc3c21 [Example 9, hydrate]", "TNF induction": "−"}
{"compound": "CCCCc1nc2c(N)nc3cccnc3c2n1CCCCNC(=O)c1ccc(C#N)cc1 [Example 176]", "TNF induction": "−"}
{"compound": "CCCCc1nc2c(N)nc3cccnc3c2n1CCNC(=O)C1CCC(=O)O1 (stereo not drawn) [Example 97]", "TNF induction": "−"}

====

# Test system: interferon α
# protocol-text: Interferon (α) Induction in Human Cells (PBM's, 48 hours, A549 bioassay)
# Assay type: cell-based
# Parameters: key: +: indicates that the compound induced interferon α at that particular concentration; −: indicates that the compound did not induce interferon α at that particular concentration; ±: indicates that the results were equivocal at that particular concentration
# recorded-conditions: Dose Concentration 50.0 μg/mL; 48 hours incubation

{"compound": "CC(C)Cn1cnc2c(N)nc3ncccc3c21 [Example 9, hydrate]", "Interferon (α) Induction in Human Cells": "−"}
{"compound": "CCCCc1nc2c(N)nc3cccnc3c2n1CC(C)C", "Interferon (α) Induction in Human Cells": "+"}
{"compound": "CC(C)Cn1cnc2c(N)nc3c(c21)NCCC3", "Interferon (α) Induction in Human Cells": "+"}
{"compound": "CCCCc1nc2c(N)nc3c(c2n1CC(C)C)CCCN3", "Interferon (α) Induction in Human Cells": "+"}
{"compound": "CCCCc1nc2c(N)nc3c(c2n1CC(C)C)NCCC3", "Interferon (α) Induction in Human Cells": "+"}
{"compound": "CC(C)Cn1cnc2c(N)nc3c(c21)CCCN3", "Interferon (α) Induction in Human Cells": "+"}
{"compound": "CC(C)Cn1cnc2c(N)nc3cccnc3c21", "Interferon (α) Induction in Human Cells": "+"}
{"compound": "CCCCc1nc2c(N)nc3ncccc3c2n1CC(C)C", "Interferon (α) Induction in Human Cells": "+"}
{"compound": "Cc1nc2c(N)nc3cccnc3c2n1CC(C)C", "Interferon (α) Induction in Human Cells": "+"}
